target_desc: P2X7 receptor (Homo sapiens)
Construct: stably expressing the full length P2X7 receptor
assay_text: Ca++ flux assay (FLIPR) in P2X7-HEK-293 cell line stably expressing the full length P2X7 receptor, Bz-ATP activation
assay_context: P2X7-HEK-293 cells; agonist Bz-ATP; fluorescence as total area over 90 seconds; read-out: P2X7 Ca Flux hu IC50
Method: The ability of Triazolopyrazinone Compounds to inhibit P2X7 function can be determined in Ca^++ flux assay using a P2X7-HEK-293 cell line stably expressing the full length P2X7 receptor. The assay protocol is as described in Cheewatrakoolpong et al., Biochem. Biophys. Res. Commun. […] Plates containing the wells were transferred to a Fluorometric Imaging Plate Reader (Molecular Devices, Sunnyvale, Calif.). […] The fluorescent signal was determined as the total area over the 90 second run time. […]
Rule: IC50 below 300 nM gives true. Equal to or above 300 nM gives false.

O=c1c2nnc(S(=O)(=O)Cc3ccccc3)n2ccn1-c1cccc(C(F)(F)F)c1Cl [Compound 127] :: true
COC(=O)c1cccc(CSc2nnc3c(=O)n(-c4cccc(Cl)c4C)ccn23)c1 [Compound 91] :: false
Cc1ccc(-c2ccccc2CS(=O)(=O)c2nnc3c(=O)n(-c4cccc(C(F)(F)F)c4C)ccn23)cc1 [Compound 154] :: true
Cc1c(Cl)cccc1-n1ccn2c(SCc3ccccc3I)nnc2c1=O [Compound 74] :: true
Cc1ccc(-c2ccccc2CSc2nnc3c(=O)n(-c4cccc(C(F)(F)F)c4C)ccn23)cc1 [Compound 7] :: true
Cc1c(-n2ccn3c(SCc4ccccc4-c4ccccc4)nnc3c2=O)cccc1C(F)(F)F [Compound 49] :: true
Cc1c(Cl)cccc1-n1ccn2c(SCc3cccc(C(F)(F)F)c3)nnc2c1=O [Compound 89] :: false
Cc1c(Cl)cccc1-n1ccn2c(SCc3ccccc3N3CCN(C(=O)OC(C)(C)C)CC3)nnc2c1=O [Compound 31] :: false

----------
Below: a set of entries, each annotated with reported pIC50.
target_desc: P2X7 receptor (Homo sapiens)
Construct: stably expressing the full length P2X7 receptor
assay_text: Ca++ flux assay (FLIPR) in P2X7-HEK-293 cell line stably expressing the full length P2X7 receptor, Bz-ATP activation
assay_context: P2X7-HEK-293 cells; agonist Bz-ATP; fluorescence as total area over 90 seconds; read-out: P2X7 Ca Flux hu IC50
pIC50: −log10 of the molar value.
measured_parameter: pIC50

Cc1cccc(-c2ccccc2CSc2nnc3c(=O)n(-c4cccc(C(F)(F)F)c4C)ccn23)c1 :: 7.52
Cc1c(Cl)cccc1-n1ccn2c(N(Cc3ccccc3)Cc3ccccc3)nnc2c1=O :: 6.97
O=c1c2nnc(SCc3ccccc3)n2ccn1-c1cccc(C(F)(F)F)c1F :: 6.34
Cc1c(Cl)cccc1-n1ccn2c(SCc3ccccc3[N+](=O)[O-])nnc2c1=O :: 6.00
Cc1c(-n2ccn3c(S(=O)(=O)Cc4cscc4Br)nnc3c2=O)cccc1C(F)(F)F :: 7.34
Cc1c(Cl)cccc1-n1ccn2c(S(=O)(=O)Cc3cccc(F)c3Cl)nnc2c1=O :: 7.76
Cc1c(Br)cccc1-n1ccn2c(SCc3cc(Cl)cc(Cl)c3)nnc2c1=O :: 6.07
Cc1c(Cl)cccc1-n1ccn2c(SCc3cc(Cl)ccc3F)nnc2c1=O :: 6.12
Cc1c(Cl)cccc1-n1ccn2c(SCCc3ccccc3)nnc2c1=O :: 6.18
Cc1c(-n2ccn3c(SCc4cc(Cl)cc(Cl)c4)nnc3c2=O)cccc1C(F)(F)F :: 6.73
O=c1c2nnc(SCc3ccccc3-c3ccccc3)n2ccn1-c1cccc(C(F)(F)F)c1Cl :: 7.76
Cc1c(Cl)cccc1-n1ccn2c(S(=O)(=O)Cc3ccccc3N3CCOCC3)nnc2c1=O :: 6.72
Cc1c(-n2ccn3c(SCc4nc5ccccc5n4C)nnc3c2=O)cccc1C(F)(F)F :: 5.25
Cc1c(Cl)cccc1-n1ccn2c(SCc3cccc(I)c3)nnc2c1=O :: 6.34
COc1ccccc1C(=O)CSc1nnc2c(=O)n(-c3cccc(Cl)c3C)ccn12 :: 6.29
Cc1c(-n2ccn3c(S(=O)(=O)Cc4ccccc4I)nnc3c2=O)cccc1C(F)(F)F :: 7.67
O=c1c2nnc(S(=O)(=O)Cc3ccccc3Cl)n2ccn1-c1cccc(C(F)(F)F)c1Cl :: 7.96

----------
target_desc: P2X7 receptor (Homo sapiens)
Construct: stably expressing the full length P2X7 receptor
assay_text: Ca++ flux assay (FLIPR) in P2X7-HEK-293 cell line stably expressing the full length P2X7 receptor, Bz-ATP activation
assay_context: P2X7-HEK-293 cells; agonist Bz-ATP; fluorescence as total area over 90 seconds; read-out: P2X7 Ca Flux hu IC50
pIC50: −log10 of the molar value.
measured_parameter: pIC50

O=c1c2nnc(SCc3ccccc3)n2ccn1-c1cccc(Cl)c1Cl :: 6.96
Cc1c(Cl)cccc1-n1ccn2c(N(Cc3ccccc3)CC3CC3)nnc2c1=O :: 6.64
Cc1c(Cl)cccc1-n1ccn2c(SCc3c(F)cccc3C(F)(F)F)nnc2c1=O :: 6.32

----------
target_desc: P2X7 receptor (Homo sapiens, UniProt Q99572)
Construct: stably expressing the full length P2X7 receptor
Sequence (Q99572 1-595): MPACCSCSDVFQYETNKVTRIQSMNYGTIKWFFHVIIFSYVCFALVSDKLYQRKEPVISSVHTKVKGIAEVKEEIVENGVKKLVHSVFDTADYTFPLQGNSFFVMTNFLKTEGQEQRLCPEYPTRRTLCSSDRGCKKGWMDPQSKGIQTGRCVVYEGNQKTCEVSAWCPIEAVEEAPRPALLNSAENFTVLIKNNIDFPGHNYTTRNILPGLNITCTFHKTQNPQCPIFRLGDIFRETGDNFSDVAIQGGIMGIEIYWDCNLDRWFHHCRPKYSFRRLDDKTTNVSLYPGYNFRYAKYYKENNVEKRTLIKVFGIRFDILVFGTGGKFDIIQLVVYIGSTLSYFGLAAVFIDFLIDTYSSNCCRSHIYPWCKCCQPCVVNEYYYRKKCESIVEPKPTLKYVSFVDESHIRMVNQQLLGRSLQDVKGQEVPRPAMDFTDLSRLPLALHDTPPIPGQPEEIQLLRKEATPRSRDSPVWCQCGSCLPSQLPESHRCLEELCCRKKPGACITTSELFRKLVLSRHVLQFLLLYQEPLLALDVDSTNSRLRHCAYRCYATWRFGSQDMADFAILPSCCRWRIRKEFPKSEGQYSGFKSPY
assay_text: Ca++ flux assay (FLIPR) in P2X7-HEK-293 cell line stably expressing the full length P2X7 receptor, Bz-ATP activation
assay_context: P2X7-HEK-293 cells; agonist Bz-ATP; fluorescence as total area over 90 seconds; read-out: P2X7 Ca Flux hu IC50
pIC50: −log10 of the molar value.
measured_parameter: pIC50

Cc1ccc(-c2ccccc2CS(=O)(=O)c2nnc3c(=O)n(-c4cccc(C(F)(F)F)c4C)ccn23)s1 [Compound 150] :: 7.31
O=c1c2nnc(SCc3ccccc3)n2ccn1-c1cccc(F)c1Cl [Compound 65] :: 6.72
Cc1c(Cl)cccc1-n1ccn2c(S(=O)(=O)Cc3ccccc3-c3cccs3)nnc2c1=O [Compound 151] :: 7.29
Cc1c(Cl)cccc1-n1ccn2c(SCc3ccccc3Cn3cncn3)nnc2c1=O [Compound 38] :: 5.84
COC(=O)c1ccccc1CSc1nnc2c(=O)n(-c3cccc(Cl)c3C)ccn12 [Compound 90] :: 6.19
